Experiment: Antioxidant activity against beta-carotene bleaching assessed as decrease of absorbance at 0.3 mM after 100 mins relative to control
Type: functional
Design: scale not given: the % may be the effect or the level left
Catalogue of Activity readings, one per entry.
measure: Activity (%)

>>> reading("O=C(O)c1cnc2cc(Cl)ccc2c1O")
91.1
>>> reading("O=C(O)c1cnc2c(Cl)cc(Cl)cc2c1O")
129
>>> reading("O=C(O)c1cnc2ccccc2c1O")
77.3
>>> reading("O=C(O)c1cnc2c(Cl)c(Cl)ccc2c1O")
108
>>> reading("O=C(O)c1cnc2cc(Cl)cc(Cl)c2c1O")
77.3
>>> reading("O=C(O)c1cnc2c(Cl)ccc(Cl)c2c1O")
77.3

====

Experiment: Antioxidant activity assessed as residual galvinoxyl radical scavenging activity at 1.5 mM after 30 mins relative to control
Format: functional
measure: Activity (%)

>>> reading("O=C(O)c1cnc2cc(Cl)ccc2c1O")
104
>>> reading("O=C(O)c1cnc2c(Cl)c(Cl)ccc2c1O")
102
>>> reading("O=C(O)c1cnc2cc(Cl)cc(Cl)c2c1O")
93.5
>>> reading("O=C(O)c1cnc2ccccc2c1O")
102
>>> reading("O=C(O)c1cnc2c(Cl)cc(Cl)cc2c1O")
104
>>> reading("O=C(O)c1cnc2c(Cl)ccc(Cl)c2c1O")
104
